System: HepG2
Test: cytotoxicity call (relative viability < 0.9)
Details: 10 µM
The campaign covered roughly 39,000 compounds. About 3,300 (8.5%) were called active. This is one part of a sample in which actives are shown more often than they occur.
The categories you may choose from are active, inactive

Take a look at these entries with their results.
# Chemical string, Assigned class
rows = [
    ("CN1C(=O)c2cc(NS(=O)(=O)c3ccc(F)cc3)ccc2OC[C@@H]2O[C@@H](CC(=O)NCC(F)(F)F)CC[C@H]21", "inactive"),
    ("C[C@H]1[C@H]2[C@H](Cc3ccccc3)NC(=O)[C@]23C(=O)N[C@H](Cc2ccccc2)C(=O)N2CCC[C@H]2C(=O)NC/C=C\\C/C=C/[C@@H]3[C@@H]2O[C@]12C", "inactive"),
]

Field: outcome | Entry: `C[C@H]1CN([C@@H](C)CO)C(=O)c2cc(C#Cc3ccncc3)cnc2O[C@@H]1CN(C)S(=O)(=O)c1ccccc1F`
active

Field: outcome | Entry: `C[C@@H]1CCCCO[C@H](CN(C)Cc2ccc(C(=O)O)cc2)[C@@H](C)CN([C@H](C)CO)C(=O)c2cc(NC(=O)c3ccccc3)ccc2O1`
inactive

Field: outcome | Entry: `COc1ccc(NC(=O)N(C)C[C@@H]2OCCCC[C@@H](C)Oc3ccc(NC(=O)NC4CCCCC4)cc3C(=O)N([C@@H](C)CO)C[C@@H]2C)cc1`
inactive

Field: outcome | Entry: `C[C@@H]1CN([C@H](C)CO)S(=O)(=O)c2ccc(C#C[C@@H](C)O)cc2O[C@H]1CN(C)C(=O)c1ccncc1`
inactive

---

Test system: HepG2
Assay: cytotoxicity call (relative viability < 0.9)
Conditions: 10 µM
In all, about 39,000 compounds went through this assay and about 3,300 (8.5%) were called active. The full list was thinned out, with actives kept by preference.
The categories you may choose from are active, inactive

Take a look at these entries with their results.
# Chemical string, Assigned class
records = [
    ("O=C(C[C@@H]1CC[C@@H]2[C@H](COC[C@H](O)CN2Cc2ccccc2F)O1)N[C@H]1CCN(Cc2ccccc2)C1", "inactive"),
    ("C[C@H](CO)N1C[C@H](C)[C@H](CN(C)Cc2ccc(C(=O)Nc3ccccc3N)cc2)Oc2ccc(NS(=O)(=O)c3ccc(Cl)cc3)cc2C1=O", "inactive"),
    ("O=C(C[C@@H]1CC[C@H](NS(=O)(=O)c2ccc(F)cc2)[C@@H](CO)O1)N1CCC(Cc2ccccc2)CC1", "inactive"),
    ("O=C(Nc1ccn([C@H]2O[C@H](CO)[C@@H](O)[C@@H]2O)c(=O)n1)c1ccccc1", "inactive"),
    ("Nc1ccc(-c2ccco2)cc1", "inactive"),
]

Field: outcome | Entry: `COCCOC(=O)N1C(=O)[C@@]2(c3ccccc31)[C@H](C(=O)Nc1nc3ccccc3s1)[C@H]1C(=O)O[C@H](c3ccccc3)[C@H](c3ccccc3)N1[C@@H]2c1ccc(OCCO)cc1`
inactive

Field: outcome | Entry: `C[C@H](CO)N1C[C@H](C)[C@H](CN(C)Cc2ccc(C(F)(F)F)cc2)Oc2ccc(NC(=O)CCCCCC(=O)Nc3ccccc3N)cc2CC1=O`
active

Field: outcome | Entry: `CC(C)(C)CC(C)(C)c1ccc(O)c(Cc2ccc(Cl)cc2Cl)c1`
active

Field: outcome | Entry: `C[C@@H]1CN([C@H](C)CO)C(=O)c2cc(NS(=O)(=O)c3ccc(Cl)cc3)ccc2O[C@@H]1CN(C)Cc1ccc(C(=O)Nc2ccccc2N)cc1`
inactive

Field: outcome | Entry: `N#C/C(=C\c1cccs1)c1csc2ccc(Cl)cc12`
inactive

---

Tested on: HepG2
Assay: cytotoxicity call (relative viability < 0.9)
Details: 10 µM
The whole screen tested about 39,000 compounds, of which about 3,300 (8.5%) were called active. Shown is part of a subset that was picked to be rich in actives.
The categories you may choose from are T = active, F = inactive

Field: outcome | Entry: `CCCC(=O)Nc1ccc(-c2nc3cc(C(C)C)ccc3o2)cc1`
F

Field: outcome | Entry: `Cc1ccc(S[C@H](C)C(=O)c2ccc(C)c(Cl)c2)cc1`
F

Field: outcome | Entry: `C[C@H]1CCCCO[C@H](CN(C)C(=O)Nc2ccc(F)cc2)[C@@H](C)CN([C@@H](C)CO)C(=O)c2cc(NS(=O)(=O)c3ccccc3)ccc2O1`
F

Field: outcome | Entry: `O=C(Nc1ccc(-c2nc3ccc(NC(=O)c4ccc(Cl)cc4)cc3[nH]2)cc1)c1ccc(Cl)cc1`
T

Field: outcome | Entry: `S=C(SN1CCOCC1)N1CCOCC1`
F

Field: outcome | Entry: `NC1(C(=O)Nc2ccc3nc(-c4ccc(F)cc4)oc3c2)CC1`
F

Field: outcome | Entry: `C[C@H]1CN([C@@H](C)CO)C(=O)c2cccc(NC(=O)c3ccncc3)c2O[C@H]1CN(C)Cc1ccncc1`
F

Field: outcome | Entry: `C[C@H](NC(=O)C[C@@H]1C[C@H]2c3cc(NC(=O)Nc4ccc(C(F)(F)F)cc4)ccc3O[C@H]2[C@@H](CO)O1)c1ccccc1`
F

---

System: HepG2
Assay: cytotoxicity call (relative viability < 0.9)
Conditions: 10 µM
Among all 39,000 compounds or so, about 3,300 (8.5%) were called active. The full list was thinned out, with actives kept by preference.
The categories you may choose from are active, inactive

Take a look at these entries with their results.
# Chemical string, Assigned class
rows = [
    ("CCc1nc2c(C)cc(N3CCN(CC(=O)N4CC(O)C4)CC3)cn2c1N(C)c1nc(-c2ccc(F)cc2)c(C#N)s1", "active"),
    ("COc1ccccc1C#Cc1cnc2c(c1)C(=O)N([C@@H](C)CO)C[C@H](C)[C@H](CN(C)S(=O)(=O)c1cn(C)cn1)O2", "inactive"),
    ("C[C@@H]1CN([C@H](C)CO)C(=O)c2cccc(NC(=O)Nc3ccc(F)cc3)c2O[C@H]1CN(C)Cc1ccc(C(=O)Nc2ccccc2N)cc1", "inactive"),
    ("COc1ccccc1C#Cc1cnc2c(c1)C(=O)N([C@@H](C)CO)C[C@@H](C)[C@H](CN(C)S(=O)(=O)c1cn(C)cn1)O2", "active"),
    ("C[C@@H]1CN([C@@H](C)CO)S(=O)(=O)c2ccc(C#CCN(C)C)cc2O[C@H]1CN(C)C", "inactive"),
]

Field: outcome | Entry: `O=C(Oc1ccccc1C(=O)O)c1ccccc1O`
inactive

Field: outcome | Entry: `Cc1noc(C)c1NC(=O)N(C)C[C@@H]1OCCCC[C@H](C)Oc2ccc(NC(=O)c3ccccc3)cc2C(=O)N([C@@H](C)CO)C[C@@H]1C`
inactive

Field: outcome | Entry: `COCC#Cc1cnc2c(c1)C(=O)N([C@H](C)CO)C[C@@H](C)[C@H](CN(C)C(=O)c1cnccn1)O2`
inactive

Field: outcome | Entry: `CCOc1ccn(-c2ccc(F)cc2)c(=O)c1C(=O)Nc1ccc(Oc2ccnc(N)c2Cl)c(F)c1`
inactive

---

System: HepG2
Experiment: cytotoxicity call (relative viability < 0.9)
Settings: 10 µM
Out of some 39,000 compounds screened, about 3,300 (8.5%) were called active. This is one part of a sample in which actives are shown more often than they occur.
The categories you may choose from are 1 = active, -1 = inactive

Take a look at these entries with their results.
# Chemical string, Assigned class
records = [
    ("CN(C)CCCCCCNC(=O)[C@H]1C[C@H]2C(=O)NCC(=O)N2[C@H]1c1cccc(OCCO)c1", -1),
    ("C[N+](C)(C)CCCCNC(=O)[C@H]1C[C@H]2C(=O)N[C@@H](Cc3ccccc3)C(=O)N2[C@H]1c1cccc(OCCO)c1", -1),
    ("C[C@H](CO)N1C[C@H](C)[C@@H](CN(C)Cc2ccc3c(c2)OCO3)Oc2ccc(NC(=O)CCN3CCOCC3)cc2CC1=O", -1),
]

Here is the next item to consider.
Field: outcome | Entry: `C[C@H](CO)N1C[C@H](C)[C@H](CN(C)Cc2ccc(Oc3ccccc3)cc2)Oc2ccc(NC(=O)Cc3cn(C)c4ccccc34)cc2CC1=O`
1

---

Test system: HepG2
Experiment: cytotoxicity call (relative viability < 0.9)
Conditions: 10 µM
The whole screen tested about 39,000 compounds, of which about 3,300 (8.5%) were called active. This excerpt belongs to a sample that is enriched for actives.
Quantity measured: cytotoxicity call

# Chemical string, Tgt, Value measured
records = [
    ("COc1ccc(-c2oc3cc(O[C@H]4O[C@H](CO)[C@@H](O)[C@H](O)[C@H]4O)c(OC)c(O)c3c(=O)c2OC)cc1O", "HepG2", "inactive"),
    ("C[C@H]1CN([C@@H](C)CO)C(=O)Cc2cc(NC(=O)c3ccncc3)ccc2O[C@@H]1CN(C)S(C)(=O)=O", "HepG2", "inactive"),
    ("CN1CCC(=C2c3ccccc3CCc3sccc32)CC1.O=C(O)CC(O)C(=O)O", "HepG2", "inactive"),
]
